B1: FAM46C (parent)
chain: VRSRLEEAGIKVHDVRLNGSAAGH

Variants of: B1
assay_protocol: protein stability index of a GFP-peptide fusion (GPS, HEK-293T) (PSI 1-6); higher = more stable;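 note: lentivirally expressed fusions sorted by FACS into six bins by GFP to DsRed ratio, PSI derived from sequencing read proportions per bin multiplied by bin number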
run_parameters: c terminus: a fixed tail appended
Quick rule for you: protein stability index at 3 or higher means Yes, lower means No.

VRSRLEEANIKVHDVRLNGSAAGH	Yes

Prompt: Dear colleague, could you confirm whether `VRSRGEEAGIKVHDVRLNGSAAGH` has protein stability index at or above 3?
Response: Yes

Prompt: Dear colleague, could you confirm whether `VRSRLEEAGIKVHDVRLGGSAAGH` has protein stability index at or above 3?
Response: No

Prompt: Dear colleague, could you confirm whether `VRSRLEEAGIKVHDVRLNGHAAGH` has protein stability index at or above 3?
Response: No

Prompt: Dear colleague, could you confirm whether `VRSRLEEAGIKVHDVRLNGQAAGH` has protein stability index at or above 3?
Response: No

Prompt: Dear colleague, could you confirm whether `VRSRLEEAAIKVHDVRLNGSAAGH` has protein stability index at or above 3?
Response: No

// provenance: the supplement of paper PMC10567573
